- Test system: UACC-62 melanoma
- Protocol summary: NCI tumour cell line growth inhibition, 48 h
Would you please tag the item Condition met when its TGI is 10 µM or above, and Condition not met when it is below?

>  <Molecule>
Cc1ccc(/C=C/C(=O)Oc2ccc(/C=C3\CCC/C(=C\c4ccc(OC(=O)/C=C/c5ccc(C)cc5)cc4)C3=O)cc2)cc1

>  <Class assignment>
Condition met

$$$$
>  <Molecule>
CC(C)NC(=O)OCc1c(COC(=O)NC(C)C)c(-c2ccc[n+](COC(=O)Cc3ccccc3)c2)n2c1CCC2

>  <Class assignment>
Condition met

$$$$
>  <Molecule>
CCN1c2ccccc2NC(=S)c2c1n[nH]c2-c1ccccc1

>  <Class assignment>
Condition met

$$$$
>  <Molecule>
CN1CCN(Cc2ccc(NC(=O)c3cncc(C#Cc4c(N)ncc5ccc(C#N)cc45)c3)cc2C(F)(F)F)CC1

>  <Class assignment>
Condition not met

$$$$
>  <Molecule>
NC(=O)c1cccc2c(N[C@H](CN3CCC3)c3ccc(Cl)c(C(F)(F)F)c3)ncnc12

>  <Class assignment>
Condition not met

$$$$
>  <Molecule>
Cc1[nH]c(=O)nc(N/N=C/c2ccc(O)cc2)c1C(=O)Nc1ccc(O)cc1

>  <Class assignment>
Condition met

$$$$
>  <Molecule>
C[C@H](c1ccc(F)cc1CCCC(=O)O)N(c1cc(F)ccc1F)S(=O)(=O)c1ccc(Cl)cc1

>  <Class assignment>
Condition met

$$$$
>  <Molecule>
COC(=O)Cc1c([C@@]2(C)CCCC(C)(C)C2)ccc2c1C(=O)OC2

>  <Class assignment>
Condition met

$$$$

Is it the case that "CCOC(=O)c1[nH]cc(C)c1-c1cccn1-c1ccc(Cl)cc1[N+](=O)[O-]" has TGI reaching or exceeding 10 µM? Condition met

Follow-up entry: "O=C(CCBr)N1CCN(C(=O)CCBr)CC1" Condition met

What about this molecule? "O=C(CN1CCCC1=O)CS(=O)(=O)c1ccccc1" Condition met

Here is the next molecule: COc1cc(C2c3cc4c(cc3OC(NNc3ccccc3)C2C)OCO4)cc(OC)c1OC (stereo not drawn) Condition met

---

- Test system: SR leukemia
- Protocol summary: NCI tumour cell line growth inhibition, 48 h
Parameter: TGI

Solved entries (count: 6):
>  <Molecule>
COc1ccc(Nc2nc3cc(C(F)(F)F)ccc3nc2-c2ccccc2)cc1OC

>  <TGI>
> 100 µM

$$$$
>  <Molecule>
CCn1c(-c2nonc2N)nc2c(C#CC(C)(C)O)ncc(OC3CCNCC3)c21

>  <TGI>
> 21.3 µM

$$$$
>  <Molecule>
CC1=C/C=C/C(=O)O[C@@H]([C@H](C)[C@H](O)[C@@H](C)NC(=O)C(C)C)[C@H](C)/C=C/C(C)=C/[C@H]2C=CCC[C@@]2(C)\C=C\1

>  <TGI>
5.58 µM

$$$$
>  <Molecule>
Nn1c(Nc2ccc(S(N)(=O)=O)cc2)nnc(/C=C/c2c(O)ccc3ccccc23)c1=O

>  <TGI>
25.1 µM

$$$$
>  <Molecule>
O=C(/C=C/C12c3ccccc3C(c3ccccc31)C1C(=O)N(c3ccc(Cl)cc3)C(=O)C12)c1ccccn1 (configuration not stated)

>  <TGI>
> 100 µM

$$$$
>  <Molecule>
Cc1[nH]c(=O)nc(N/N=C/c2ccc(O)cc2)c1C(=O)Nc1ccc(O)cc1

>  <TGI>
> 100 µM

$$$$

Record request: TGI value, item "O=P(O)(O)c1ccc(-c2ccc(I)cc2)cc1" > 100 µM

Would you kindly repeat that for "O=C([O][Hg][c]1ccccc1)c1ccccc1" ? 2.35 µM

What about this molecule? "COc1cc2c(NCCCCCO)ncnc2c(OC)c1OC" > 100 µM

Would you mind doing CCCCCCC1N=C(N)N=C(N)N1c1cccc(Cl)c1 (configuration not stated) as well? > 42.7 µM

Again, but for "Cc1cc(=O)[nH]c(CNC(=O)c2ccc3ccccc3c2)n1" > 100 µM

Also need "COC(=O)c1c(O)ccc2c1c1cc3ccccc3cc1n2Cc1cc(OC)cc(OC)c1" , thanks. > 100 µM
